- experimental details: P. aeruginosa biofilm formation inhibitors, primary screen, PAO1 strain, BacTiter-Glo luminescence, LB-PBS (AID 1144)
- assay setup: 12 h, higher = more signal
assay endpoint: z-score
A bare number is all that is needed in reply.

Input: // lookup z-score for "CCCC[C@@H](O)C1=C(C)C[C@H]2C(=O)N(Cc3ccccc3)C(=O)[C@H]2[C@H]1CO"
Output: -0.665

Input: What about "C[C@H]1Cc2c(-c3ccccc3)nc3c(c2CO1)CN(CCOc1ccccc1)CC3" ?
Output: -0.888

Input: Check COc1ccc(-c2ccc3c(n2)CCCN3CC(O)CN2CCCc3nc(C)c(C)cc32)cc1 (stereo not given) too.
Output: -0.0522

Input: One more compound: "O=C1C[C@@H](O)[C@@H](O)[C@@H]2[C@@H]3C(=O)N(Cc4ccc5c(c4)OCO5)C(=O)[C@@H]3CC[C@@H]12"
Output: 0.00816

Input: Now the same for Cc1cc2c(nc1C)CCCN2CC(O)CN1CCN(C)CC1 (stereo not given)
Output: 0.816
